# folding enthalpy annotations
- TEST METHOD NOTES: folding enthalpy; higher = less favourable; fluorescence melt of hairpins on a sequencing array, two-state fit
- EXPERIMENTAL CONTEXT: sodium 0.088 M
Unit kJ/mol implied. Number only.

Sample answers from the record:
What value of measured folding enthalpy is listed for GGACGACCGAAAGGTTCC (((..(((....)))))) ?
-57.9

Entry TAATCGAAAGATTA (((((....))))) please
-63.4

Next:
Reported folding enthalpy for TCGAAGAAATTCGA (((((....))))) : what is it?
-46.4

Also check GTTCCAGGAAACTGGAGC (.(((((....))))).)
-82.2

Same read-out for GTCAGTGGAAACATTGGC (.((.((....)).)).) ?
-110

Same lookup for GATCTATTCCTAGATC ((((((....)))))) , please.
-125

Next sequence up: GTTGATCCGAAAGGAAAC (((..(((....))))))
-86.9

Please give the result for GATACGGGAAACTGTGTC ((.((.(....).)).)) too.
-83.9

Param item: GGGTGGAAACACCC (((((....)))))
-118

Also GGAATCCGAAAGGATCC (((.(((....)))))) ?
-82.1

Next sequence: GTCTGCCGAAAGGCGAC (((.(((....))))))
-75.7

// query: GGCGAATCGAAAGATGCC (((..(((....))))))
-94

====

- TEST METHOD NOTES: folding enthalpy; higher = less favourable; fluorescence melt of hairpins on a sequencing array, two-state fit
- EXPERIMENTAL CONTEXT: sodium 0.088 M
Recorded folding enthalpy values for a group of sequences are listed next.
Give the quantity in kcal/mol, number only.

Reported folding enthalpy for GGCTCAACGAAAGTTGCC (((..(((....)))))) : what is it?
-13.7

// query: GCCGACCGAAAGGTGGC (((.(((....))))))
-34

Okay, and GGACTGGCGAAAGCCTCC (((..(((....)))))) ?
-9.14

Try the sequence CGAACGGAAACGTACTCG ((((((....)))..)))
-5.58

Same again, this time with GACACCGGAAACGGTGCC (.(((((....))))).)
-13.4

Could you do the same for GAGCTCGGAAACGAGCCC (.(((((....))))).) , please?
-7.56

Field entry: GGAATCCGAAAGGACTCC (((.(((....))).)))
-26.2

Could you do the same for GTCCGTGGAAACACAGAC (((.(((....))).))) , please?
-28.2

Consider next the sequence GATCTTCTGTAAGATC ((((((....)))))) in the same way.
-34.7

Try GCCCAGGCGAAAGCCGGC (((..(((....)))))) next.
-10.1

Note, next up: GGGGTCGAAAGACTACCC ((((((....)))..)))
-18

Then this sequence: GGTGTTTCGAAAGAAACC (((..(((....))))))
-13.2

====

- TEST METHOD NOTES: melting temperature; fluorescence melt of hairpins on a sequencing array, two-state fit, raised by 9.35 °C to match UV melts
- EXPERIMENTAL CONTEXT: sodium 0.088 M
Listing: Tm of selected sequences
The figure you give is taken to be in °C; do not add the unit.

Please report the recorded Tm for GTAGCCACGAAAGTGTAC (((..(((....)))))) .
22.3

FYI, the data here is from the array DNA melting data of Ke et al. (doi:10.1101/2024.01.08.574731).
